In this section, each of the binders is paired with its reported pIC50.
Target: HLA-A*3101 (Human)
Conditions: remark: other sources report otherwise
Expect pIC50 as a plain number equal to -log10 of the molar concentration.

Recorded pIC50 of FVLGGCRHK (modifications not checked) [Peptide 1.0219 (HBV X 1550, …)] , please.
5.82

Recorded pIC50 of SSAGPCALR (modifications not checked) [Peptide 26.0153 (HBV X 64, …)] , please.
7.26

Recorded pIC50 of KVFVLGGCR (modifications not checked) [Peptide 1.0993 (HBV X 130, …)] , please.
7.52

Recorded pIC50 of AFTFSPTYK (modifications not checked) [Peptide 20.0130 (HBV pol 655, …)] , please.
5.51
